The measurements presented in this section are drawn from ChEMBL document CHEMBL1156629.

# pIC50 per entry
Experimental Details: Antiproliferative activity against human RFC expressing Chinese hamster PC43-10 cells
Settings: Cricetulus griseus
pIC50: −log10 of the molar value.

Reference set, count: 2
In [3]: df
Out[3]:
                      smiles_representation  readout  observed_result
0  Nc1nc2[nH]c(CCCCc3ccc(C(=O)N[C@@H](CCC(=O)O)C(=O)O)cc3)cc2c(=O)[nH]1    pIC50           < 6.00
1  Nc1nc2[nH]c(Cc3ccc(C(=O)N[C@@H](CCC(=O)O)C(=O)O)cc3)cc2c(=O)[nH]1    pIC50           < 6.00

Prompt: Tell me measured pIC50 for Nc1nc2[nH]c(CCCc3ccc(C(=O)N[C@@H](CCC(=O)O)C(=O)O)cc3)cc2c(=O)[nH]1 please.
Completion: 6.52

Prompt: Dear colleague, please send me the reported pIC50 for Nc1nc2[nH]c(CCCCCc3ccc(C(=O)N[C@@H](CCC(=O)O)C(=O)O)cc3)cc2c(=O)[nH]1 when you can.
Completion: < 6.00

Prompt: In one line, give reported pIC50 of the entry Nc1nc2[nH]c(CCCCCCc3ccc(C(=O)N[C@@H](CCC(=O)O)C(=O)O)cc3)cc2c(=O)[nH]1 .
Completion: < 6.00

====

Experimental Details: cells
Settings: Cricetulus griseus, RT16
Description: Antiproliferative activity against human FRalpha expressing Chinese hamster RT16 cells
Readout: pIC50
Would you please state pIC50, meaning minus log10 of the concentration in mol/L, as a bare number?

Prompt: Output measured pIC50 for this item: Nc1nc2[nH]c(CCCCCCc3ccc(C(=O)N[C@@H](CCC(=O)O)C(=O)O)cc3)cc2c(=O)[nH]1
Completion: 6.79
